Target: GST-ALK5 (Homo sapiens, UniProt P36897)
Assay: In-vitro (enzyme) kinase assay, 384-well flashplate (Example 36)
Assay type: biochemical
Details: GST-ALK5, GST-SMAD2 substrate, 3 mM ATP, 30° C., 45 min; read-out: TβR activity (Example 36)
Description: In-vitro (Enzyme) Assay for Determination of the Efficacy of Inhibitors of the Inhibition of TGF-beta-Mediated Effects The kinase assay was carried out as 384-well flashplate assay. […] Radioactivity was measured in the TopCount. The IC50 values were calculated using RS1.
Counter-ions that a name gives are not always drawn.
In this section, each of the molecules is paired with its reported IC50.
result_type: IC50

molecule | result_type | assay_result
Fc1ccc(Cl)cc1-c1cc(-c2cccc(-c3ccccc3)n2)c2cccnc2n1 | IC50 | > 10000 nM
Fc1ccc(Cl)cc1-c1cc(-c2cncc(-c3ccccc3)c2)c2ccccc2n1 | IC50 | 1000 to 10000 nM
NCCOc1cccc(-c2cncc(-c3cc(-c4cc(Cl)ccc4F)nc4ncccc34)c2)c1 | IC50 | < 100 nM
Fc1ccc(F)c(-c2cc(-c3cccnc3)c3cccnc3n2)c1 | IC50 | 1000 to 10000 nM
CN1CC[C@H](n2cc(-c3cncc(-c4cc(-c5cc(Cl)ccc5F)nc5ncccc45)c3)cn2)C1 | IC50 | < 100 nM
CN1CCC(n2cc(-c3cncc(-c4cc(-c5cc(Cl)ccc5F)nc5ncccc45)c3)nn2)CC1 | IC50 | < 100 nM
Fc1ccc(Cl)cc1-c1cc(-c2cncc(-c3cccc4c3CCNC4)c2)c2cccnc2n1 | IC50 | 1000 to 10000 nM
Fc1ccc(F)c(-c2cc(-c3cncc(-c4cccc(OC5CCNCC5)c4)c3)c3cccnc3n2)c1 | IC50 | < 100 nM
OCCN1CCC(n2cc(-c3cncc(-c4cc(-c5cc(Cl)ccc5F)nc5ncccc45)c3)cn2)CC1 | IC50 | < 100 nM
CC(=O)Nc1ncc(-c2cc(-c3ccccc3F)nc3ncccc23)c2ccncc12 | IC50 | 100 to 1000 nM
Nc1cccnc1-c1cncc(-c2cc(-c3cc(Cl)ccc3F)nc3ncccc23)c1 | IC50 | > 10000 nM
COCCN1CCC(n2cc(-c3cncc(-c4cc(-c5cc(F)ccc5F)nc5ncccc45)c3)cn2)CC1 | IC50 | < 100 nM
Fc1ccc(Cl)cc1-c1cc(-c2cncc(-c3ccncc3)c2)c2cccnc2n1 | IC50 | < 100 nM
OC/C=C/Cn1cc(-c2cncc(-c3cc(-c4ccccc4F)nc4ncccc34)c2)cn1 | IC50 | < 100 nM
OCC(O)Cn1cc(-c2cncc(-c3cc(-c4cc(F)ccc4F)nc4ncccc34)c2)cn1 (stereo not shown) | IC50 | < 100 nM
Fc1ccc(Cl)cc1-c1cc(-c2cncc(-c3ccc(CCN4CCOCC4)cc3)c2)c2cccnc2n1 | IC50 | < 100 nM
Nc1ncc(-c2cc(-c3cc(F)ccc3F)nc3ncccc23)c2ccncc12 | IC50 | < 100 nM
OCCCn1cc(-c2cncc(-c3cc(-c4cc(F)ccc4F)nc4ncccc34)c2)cn1 | IC50 | < 100 nM
CN1CCC(n2cc(-c3cncc(-c4cc(-c5cc(F)ccc5F)nc5ncccc45)n3)cn2)CC1 | IC50 | < 100 nM
COCCN1CCC(n2cc(-c3cncc(-c4cc(-c5cc(Cl)ccc5F)nc5ncccc45)c3)cn2)CC1 | IC50 | < 100 nM
CN1CCC(NC(=O)c2cccc(-c3cncc(-c4cc(-c5cc(Cl)ccc5F)nc5ncccc45)c3)c2)CC1 | IC50 | 100 to 1000 nM
CN1CCC(n2cc(-c3cncc(-c4cc(-c5ccccc5F)nc5ncccc45)n3)cn2)CC1 | IC50 | < 100 nM
Fc1ccc(Cl)cc1-c1cc(-c2cncc(-c3ccc(CCN4CCCC4)cc3)c2)c2cccnc2n1 | IC50 | < 100 nM
O=C1CCc2cc(-c3cncc(-c4cc(-c5cc(Cl)ccc5F)nc5ncccc45)c3)cnc2N1 | IC50 | < 100 nM
O=S(=O)(c1cccc(-c2cncc(-c3cc(-c4cc(Cl)ccc4F)nc4ncccc34)c2)c1)N1CCNCC1 | IC50 | 100 to 1000 nM
Fc1ccc(Cl)cc1-c1cc(-c2cncc(-c3cccnc3)c2)c2cccnc2n1 | IC50 | < 100 nM
Fc1ccc(Cl)cc1-c1cc(-c2cncc(-c3ccc4c(c3)CNC4)c2)c2cccnc2n1 | IC50 | < 100 nM
Fc1ccc(C(F)(F)F)cc1-c1cc(-c2cncc(-c3cnn(C4CCNCC4)c3)c2)c2cccnc2n1 [compound 18, dihydrochloride] | IC50 | < 100 nM
Fc1ccc(F)c(-c2cc(-c3cncc(-c4ccc(OC5CCNCC5)cc4)c3)c3cccnc3n2)c1 | IC50 | < 100 nM
CN1CC[C@@H](n2cc(-c3cncc(-c4cc(-c5ccccc5F)nc5ncccc45)c3)cn2)C1 | IC50 | < 100 nM
CC(C)N1CCc2ccc(-c3cncc(-c4cc(-c5cc(Cl)ccc5F)nc5ncccc45)c3)cc2C1 | IC50 | < 100 nM

* * *

// reported IC50 per item
Molecular target: GST-ALK5 (Homo sapiens)
Sequence (P36897 34-503): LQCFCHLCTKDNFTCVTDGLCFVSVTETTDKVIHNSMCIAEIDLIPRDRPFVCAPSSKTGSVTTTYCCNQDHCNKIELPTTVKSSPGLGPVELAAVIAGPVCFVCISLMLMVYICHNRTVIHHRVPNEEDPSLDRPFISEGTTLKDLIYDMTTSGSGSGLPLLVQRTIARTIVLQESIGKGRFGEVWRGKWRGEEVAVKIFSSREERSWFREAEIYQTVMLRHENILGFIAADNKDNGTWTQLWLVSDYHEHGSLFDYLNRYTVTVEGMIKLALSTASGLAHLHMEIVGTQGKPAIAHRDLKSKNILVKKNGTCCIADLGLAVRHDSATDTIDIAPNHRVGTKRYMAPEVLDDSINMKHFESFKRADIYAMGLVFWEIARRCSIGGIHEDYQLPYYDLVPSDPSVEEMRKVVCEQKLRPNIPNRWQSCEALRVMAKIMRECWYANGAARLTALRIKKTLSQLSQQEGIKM
Test: In-vitro (enzyme) kinase assay, 384-well flashplate (Example 36)
Assay type: biochemical
Conditions: GST-ALK5, GST-SMAD2 substrate, 3 mM ATP, 30° C., 45 min; read-out: TβR activity (Example 36)
Experimental: In-vitro (Enzyme) Assay for Determination of the Efficacy of Inhibitors of the Inhibition of TGF-beta-Mediated Effects The kinase assay was carried out as 384-well flashplate assay. […] Radioactivity was measured in the TopCount. The IC50 values were calculated using RS1.
result_type: IC50

smiles_text | assay_result
NC(=O)COc1ccc(-c2cncc(-c3cc(-c4cc(Cl)ccc4F)nc4ncccc34)c2)cc1 | < 100 nM
Fc1ccc(Cl)cc1-c1cc(-c2cncc(-c3ccnc(N4CCOCC4)c3F)c2)c2cccnc2n1 | 100 to 1000 nM
CN1CCN(c2ccc(-c3cncc(-c4cc(-c5ccccc5F)nc5ncccc45)n3)cn2)CC1 | < 100 nM
Fc1ccc(Cl)cc1-c1cc(-c2cncc(-c3cnn(CCN4CCCC4)c3)c2)c2cccnc2n1 | < 100 nM

* * *

Quick reference for IC50 among some molecules
Target: GST-ALK5 (Homo sapiens, UniProt P36897)
Experiment: In-vitro (enzyme) kinase assay, 384-well flashplate (Example 36)
Assay type: biochemical
Conditions: GST-ALK5, GST-SMAD2 substrate, 3 mM ATP, 30° C., 45 min; read-out: TβR activity (Example 36)
Description: In-vitro (Enzyme) Assay for Determination of the Efficacy of Inhibitors of the Inhibition of TGF-beta-Mediated Effects The kinase assay was carried out as 384-well flashplate assay. […] Radioactivity was measured in the TopCount. The IC50 values were calculated using RS1.
Structures can show the parent of a compound that is named as a salt.
result_type: IC50

molecule | assay_result
CN1CCN(c2ccc(-c3cncc(-c4cc(-c5cc(Cl)ccc5F)nc5ncccc45)c3)cn2)CC1 [compound 93] | < 100 nM
Fc1ccc(Cl)cc1-c1cc(-c2cncc(-c3cccc(C(F)(F)F)n3)c2)c2cccnc2n1 [compound 106] | 100 to 1000 nM
CN1CCN(c2ccc(-c3cc(-c4cc(-c5cc(Cl)ccc5F)nc5ncccc45)cnn3)cc2)CC1 [compound 117] | 100 to 1000 nM
CN1CCN(c2cncc(-c3cncc(-c4cc(-c5cc(Cl)ccc5F)nc5ncccc45)c3)c2)CC1 [compound 171] | < 100 nM
Fc1ccc(Cl)cc1-c1cc(-c2cncc(-c3ccccc3)c2)c2cccnc2n1 [compound 4] | 100 to 1000 nM
Cc1ccn(-c2cc(-c3cncc(-c4ccc(N5CCN(C)CC5)cc4)c3)c3cccnc3n2)n1 [compound 128] | 1000 to 10000 nM
Fc1ccccc1-c1cc(-c2cncc(-c3cnn(CCn4cccn4)c3)c2)c2cccnc2n1 [compound 77] | 100 to 1000 nM
Fc1ccccc1-c1cc(-c2cncc(-c3cnn(C4CCNCC4)c3)c2)c2cccnc2n1 [compound 29, dihydrochloride] | < 100 nM
CN1CCN(c2nc(-c3cncc(-c4cc(-c5cc(Cl)ccc5F)nc5ncccc45)c3)no2)CC1 [compound 56] | < 100 nM
CN1CCC(n2cc(-c3cncc(-c4cc(-c5cc(C(F)(F)F)ccc5F)nc5ncccc45)c3)cn2)CC1 [compound 23] | < 100 nM
CN(C)CCNC(=O)c1cccc(-c2cncc(-c3cc(-c4cc(Cl)ccc4F)nc4ncccc34)c2)c1 [compound 118] | < 100 nM
